All figures here come from patent US20190022039A1.

Known log10 of EC50 of a selection of molecules
Molecular target: human GLP-1R (Homo sapiens)
Assay: GLP-1 receptor in vitro calcium assay (intracellular free calcium concentration change induced via GLP-1 receptor)
Conditions: PRG48 cells transfected with human GLP-1R; compound added with 250 pM GLP-1; Ca2+ response ΔF/F; read-out: Ca EC50 value
Each number you see is log10 of EC50, and the unit inside the log is nM.

Look over these answered cases.
COc1ccc(CNC(=O)[C@@H](Cc2ccccc2)NC(=O)Nc2ccc(NS(=O)(=O)c3ccc(C)cc3)cc2)cc1
3.15
CCCCCCCN(C(=O)N[C@H](Cc1ccccc1)C(=O)OC(C)(C)C)c1ccc(NS(=O)(=O)c2ccc(C)cc2)cc1
0.85
CCCOc1ccc(-c2noc([C@H](CC3CCCCC3)NC(=O)Nc3ccc(NS(=O)(=O)c4ccc(C(C)(C)C)cc4)cc3)n2)cc1
0.63

Noted for Cc1ccc(S(=O)(=O)Nc2ccc(NC(=O)N[C@H](Cc3ccc(Cl)cc3)C(=O)NCCC3CCCCC3)cc2)cc1 : its log10 of EC50 reads 1.20

According to the records, this molecule Cc1cc(C)c(S(=O)(=O)Nc2ccc(NC(=O)N[C@@H](Cc3ccccc3)C(=O)OC(C)(C)C)cc2)c(C)c1 displays log10 of EC50 of 2.58

// sample CCCCC(CC)CNC(=O)[C@@H](Cc1c[nH]c2ccccc12)NC(=O)Nc1ccc(NS(=O)(=O)c2ccc(C(C)(C)C)cc2)cc1F (stereo partly drawn) , its log10 of EC50 was 1.86

====

Target: human GLP-1R (Homo sapiens, UniProt P43220)
Sequence (P43220 24-463): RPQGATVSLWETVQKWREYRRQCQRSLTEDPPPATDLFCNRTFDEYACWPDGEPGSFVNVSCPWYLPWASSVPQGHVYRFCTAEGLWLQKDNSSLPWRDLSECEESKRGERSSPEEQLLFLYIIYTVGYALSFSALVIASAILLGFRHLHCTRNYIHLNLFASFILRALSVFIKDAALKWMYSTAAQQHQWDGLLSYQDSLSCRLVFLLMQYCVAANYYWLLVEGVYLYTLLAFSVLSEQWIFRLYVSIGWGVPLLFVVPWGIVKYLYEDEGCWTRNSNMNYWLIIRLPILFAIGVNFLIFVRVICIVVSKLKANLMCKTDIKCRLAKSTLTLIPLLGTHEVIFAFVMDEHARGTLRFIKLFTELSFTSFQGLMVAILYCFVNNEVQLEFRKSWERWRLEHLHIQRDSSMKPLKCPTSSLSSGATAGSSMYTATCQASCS
Assay: GLP-1 receptor in vitro calcium assay (intracellular free calcium concentration change induced via GLP-1 receptor)
Details: PRG48 cells transfected with human GLP-1R; compound added with 250 pM GLP-1; Ca2+ response ΔF/F; read-out: Ca EC50 value
Classes by EC50: I: < 30 nM; II: ≥ 30 nM and < 400 nM; III: ≥ 400 nM

Below, 4 compounds whose answers are already recorded.
CCCC[C@@H](NC(=O)[C@@H](Cc1ccccc1)NC(=O)Nc1ccc(NS(=O)(=O)c2ccc(C)cc2)cc1)C(=O)OC
III
Cc1ccc(S(=O)(=O)Nc2ccc(NC(=O)N[C@H](CC(C)C)C(=O)NCCC3CCCCC3)cc2)cc1
II
CCCCC(CC)CNC(=O)[C@@H](Cc1ccc(Cl)cc1)NC(=O)Nc1ccc(NS(=O)(=O)c2ccc(C(C)(C)C)cc2)cc1 (stereo partly drawn)
I
CCCCCNC(=O)[C@@H](Cc1ccccc1)NC(=O)Nc1ccc(NS(=O)(=O)c2ccc(C)cc2)cc1
III

Exam item: # bin label for CCC(CC)CNC(=O)[C@@H](Cc1ccccc1)NC(=O)Nc1ccc(NS(=O)(=O)c2ccc(C)cc2)cc1
Marked response: II

Exam item: Assign a bin to CC(C)(C)c1ccc(S(=O)(=O)Nc2ccc(NC(=O)N[C@@H](CC3CCCCC3)c3nc(-c4ccc(OC(F)(F)F)cc4)no3)cc2)cc1
Marked response: I

Exam item: Into which bin does this compound go? CCCCC(CC)CNC(=O)[C@@H](CC(C)C)NC(=O)Nc1ccc(NS(=O)(=O)c2ccc(C)cc2)cc1 (stereo partly drawn)
Marked response: II

Exam item: Bin this entry: Cc1ccc(S(=O)(=O)Nc2ccc(NC(=O)N[C@H](Cc3ccccc3)C(=O)NCC#N)cc2)cc1
Marked response: II

Exam item: Note: place this compound into its band. Item: CCCCCCNc1ccc(S(=O)(=O)Nc2cccc(NC(=O)N[C@H](CC3CCCCC3)C(=O)NCCCSC)c2)cn1
Marked response: I
